system: LOX IMVI melanoma; assay: NCI tumour cell line growth inhibition, 48 h
Entries and their GI50 values follow.
reported.property: GI50

[[record]]
compound = "O=C1C(Cl)=C(Nc2cccc(O)c2)C(=O)N1c1cccc(Cl)c1Cl"
tested_on = "LOX IMVI melanoma"
measured = "12.5 µM"

[[record]]
compound = "O=C(/C=C/c1cccnc1)c1ccccc1O"
tested_on = "LOX IMVI melanoma"
measured = "14.4 µM"

[[record]]
compound = "COc1cc(C2C(C#N)=C(N)Oc3cc(O)ccc32)cc(OC)c1OC (stereo unspecified)"
tested_on = "LOX IMVI melanoma"
measured = "0.546 µM"

[[record]]
compound = "COC(=O)c1ccc(C2SCC(=O)N2NC(=O)C(O)c2ccccc2)cc1 (stereo unspecified)"
tested_on = "LOX IMVI melanoma"
measured = "> 100 µM"

[[record]]
compound = "NC[C@@](O)(c1ccc(Cl)cc1)c1ccc(-c2cn[nH]c2)cc1"
tested_on = "LOX IMVI melanoma"
measured = "1.59 µM"

[[record]]
compound = "COc1ccc(CNc2nc(NCc3ccc(OC)cc3)c3n[nH]c(C(C)C)c3n2)cc1"
tested_on = "LOX IMVI melanoma"
measured = "4.45 µM"

[[record]]
compound = "CC([O-])C(=O)[O-].NCC1CCC1CN.[Pt+4] (stereo unspecified)"
tested_on = "LOX IMVI melanoma"
measured = "> 10 µM"

[[record]]
compound = "COc1cc(NC(N)=NCCC(C)(C)c2ccc(C(F)(F)F)cc2)ncc1C#N"
tested_on = "LOX IMVI melanoma"
measured = "1.58 µM"

[[record]]
compound = "COc1cc2c3c(n(CCCCl)c(=O)c2cc1OC)-c1ccc(C#N)cc1C3=O"
tested_on = "LOX IMVI melanoma"
measured = "3.43 µM"

[[record]]
compound = "O=C([O-])c1ccccc1Nc1ccccc1[O-].[Ni+3].[OH3+].[OH3+].[OH3+]"
tested_on = "LOX IMVI melanoma"
measured = "> 100 µM"

[[record]]
compound = "C[C@]12CC[C@H]3[C@@H](C[C@@H]4N=C(c5ccc(O)cc5)S[C@@]45C[C@H](O)CC[C@]35C)[C@@H]1CC[C@@H]2O"
tested_on = "LOX IMVI melanoma"
measured = "2.67 µM"


----------
A collection of molecules and their measured TGI
system: PC-3 prostate; test: NCI tumour cell line growth inhibition, 48 h
reported.property: TGI

[[record]]
molecule = "CC[C@]12C=CCN3CCC4(c5cc([C@@]6(C(=O)OC)CC7CN(CCc8c6[nH]c6ccccc86)C[C@@H]6CCC[C@H]76)c(OC)cc5N(C)C4[C@](O)(C(=O)OC)C1OC(C)=O)C32 (stereo partly drawn)"
measured = "> 10 µM"

[[record]]
molecule = "COc1cc(OC)cc(-c2cncn2-c2ccc(-c3nc4cc(OC)c(OC)c(OC)c4s3)cc2)c1"
measured = "> 100 µM"

[[record]]
molecule = "CC(C)(C)NC1C2CCC(C)(C1O)C2(C)C (stereo not drawn)"
measured = "> 100 µM"


----------
tested on: DU-145 prostate; assay: NCI tumour cell line growth inhibition, 48 h
reported.property: TGI (µM)

[[record]]
molecule = "CCCCOC(=O)C1CN2C(=NC1(C(F)(F)F)C(F)(F)F)Sc1ccccc12 (configuration not stated)"
censoring_qualifier = ">"
measured = 100

[[record]]
molecule = "O=C(CCl)Nc1ccc2c(c1)C(=O)c1ccc(NC(=O)CCl)cc1C2=O"
censoring_qualifier = "="
measured = 3.45

[[record]]
molecule = "C[C@@]1(N2C(=O)OC[C@@H]2c2ccccc2)C(=O)N([C@H](CC(=O)N2CCC(N3CCCCC3)CC2)C(=O)NCc2cccc(C(F)(F)F)c2)[C@@H]1/C=C/c1ccccc1"
censoring_qualifier = "="
measured = 8.47

[[record]]
molecule = "O=C1c2cccnc2C(=O)c2c1c(C(=O)OCCN1CCOCC1)c1ccccn21"
censoring_qualifier = "="
measured = 1.31

[[record]]
molecule = "NC(CCCCNC(=O)C(Cc1ccccc1)NC(=O)OCc1ccccc1)C(=O)NC(CCCCNC(=O)C(Cc1ccccc1)NC(=O)OCc1ccccc1)C(=O)NC(CCCCNC(=O)C(Cc1ccccc1)NC(=O)OCc1ccccc1)C(=O)NC(CCCCNC(=O)C(Cc1ccccc1)NC(=O)OCc1ccccc1)C(=O)NC(CCCCNC(=O)C(Cc1ccccc1)NC(=O)OCc1ccccc1)C(=O)NC(CCCCNC(=O)C(Cc1ccccc1)NC(=O)OCc1ccccc1)C(=O)O (configuration not stated)"
censoring_qualifier = ">"
measured = 100

[[record]]
molecule = "CC([O-])C(=O)[O-].NCC1CCC1CN.[Pt+4] (configuration not stated)"
censoring_qualifier = ">"
measured = 10

[[record]]
molecule = "COc1ccccc1Cn1c2c(c3c(C(=O)NCCN(C)C)c(O)ccc31)C(=O)c1ccccc1C2=O"
censoring_qualifier = "="
measured = 3.31

